The measured values listed here are drawn from ChEMBL document CHEMBL3259536.

Species on record: Homo sapiens
Assay: Selectivity index, ratio of IC50 for human recombinant MAO-A to IC50 for human recombinant MAO-B
Response key: Y means Ratio IC50 >= 2; N means Ratio IC50 < 2.

Answered examples (8):
[
  {
    "Structure notation": "O=C(Nc1cccc(C(F)(F)F)c1)c1cc2cc([N+](=O)[O-])ccc2oc1=O",
    "Label value": "Y"
  },
  {
    "Structure notation": "O=C(NCCCN1CCOCC1)c1cc2cc([N+](=O)[O-])ccc2oc1=O",
    "Label value": "N"
  },
  {
    "Structure notation": "Cc1cccc(NC(=O)c2cc3cc([N+](=O)[O-])ccc3oc2=O)c1",
    "Label value": "N"
  },
  {
    "Structure notation": "Cc1ccccc1NC(=O)c1cc2cc(Br)cc(Br)c2oc1=O",
    "Label value": "Y"
  },
  {
    "Structure notation": "CC(C)(C)NC(=O)c1cc2cc(Br)cc(Br)c2oc1=O",
    "Label value": "Y"
  },
  {
    "Structure notation": "CCCCCCN(CCCCCC)C(=O)c1cc2ccccc2oc1=O",
    "Label value": "N"
  },
  {
    "Structure notation": "Cc1cccc(NC(=O)c2cc3cc(Br)cc(Br)c3oc2=O)c1",
    "Label value": "Y"
  },
  {
    "Structure notation": "COc1ccccc1NC(=O)c1cc2cc(Br)cc(Br)c2oc1=O",
    "Label value": "Y"
  }
]

// inclusive: Ratio IC50 at least 2? input: Cc1ccccc1NC(=O)c1cc2ccccc2oc1=O
Y

// inclusive: Ratio IC50 at least 2? input: O=C(Nc1cccc(C(F)(F)F)c1)c1cc2cc(Br)cc(Br)c2oc1=O
Y

###

Target: UniProt:P21397
Sequence (P21397 whole entry): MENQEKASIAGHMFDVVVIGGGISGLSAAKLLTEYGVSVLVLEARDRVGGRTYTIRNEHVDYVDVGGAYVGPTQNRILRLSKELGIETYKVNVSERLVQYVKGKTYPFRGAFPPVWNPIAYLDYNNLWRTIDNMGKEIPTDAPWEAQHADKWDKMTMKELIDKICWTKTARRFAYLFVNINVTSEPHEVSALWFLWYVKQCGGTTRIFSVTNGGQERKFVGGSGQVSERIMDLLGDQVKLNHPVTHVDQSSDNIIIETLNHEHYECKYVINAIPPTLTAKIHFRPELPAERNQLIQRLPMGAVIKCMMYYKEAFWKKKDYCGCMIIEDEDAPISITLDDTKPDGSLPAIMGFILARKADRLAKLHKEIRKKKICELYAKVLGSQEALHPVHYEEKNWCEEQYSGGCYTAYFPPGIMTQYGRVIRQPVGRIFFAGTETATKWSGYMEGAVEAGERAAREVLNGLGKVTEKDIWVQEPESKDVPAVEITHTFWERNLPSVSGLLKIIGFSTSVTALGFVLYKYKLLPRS
Assay: Inhibition of human recombinant MAO-A expressed in baculovirus infected insect cell microsomes assessed as p-tyramine conversion to resorufin and H2O2 after 15 mins by fluorimetric assay
Readout label: IC50 (µM)
# value in µM; strip the unit string

[
  {
    "Molecule": "O=C(NCCCN1CCOCC1)c1cc2ccccc2oc1=O",
    "IC50, µM": 42.3
  },
  {
    "Molecule": "CCCCCCN(CCCCCC)C(=O)c1cc2ccccc2oc1=O",
    "IC50, µM": 14.2
  },
  {
    "Molecule": "O=C(NCCCN1CCOCC1)c1cc2cc(Br)cc(Br)c2oc1=O",
    "IC50, µM": 32.4
  },
  {
    "Molecule": "CC(C)(C)NC(=O)c1cc2cc(Br)cc(Br)c2oc1=O",
    "IC50, µM": 31.5
  }
]

Alright, here's another molecule for you.
Record CCC(C)NC(=O)c1cc2cc([N+](=O)[O-])ccc2oc1=O (stereo not given) , field IC50: 37.5

###

Species: Homo sapiens
Assay: Selectivity index, ratio of IC50 for human recombinant MAO-A to IC50 for human recombinant MAO-B
Readout label: Ratio IC50
Write the number on its own, no unit after it.

[
  {
    "Molecule": "O=C(NCCCN1CCOCC1)c1cc2ccccc2oc1=O",
    "Ratio IC50": 3.1
  }
]

Record O=C(NCCCN1CCOCC1)c1cc2cc(Br)cc(Br)c2oc1=O , field Ratio IC50: 3.1

Record COc1ccccc1NC(=O)c1cc2ccccc2oc1=O , field Ratio IC50: 1.7

Record CCC(C)NC(=O)c1cc2cc([N+](=O)[O-])ccc2oc1=O (stereo not given) , field Ratio IC50: 1.97

Record COc1ccccc1NC(=O)c1cc2cc([N+](=O)[O-])ccc2oc1=O , field Ratio IC50: 1.2
